Molecular target: D(1A) dopamine receptor (Homo sapiens)
Sequence (P21728 whole entry): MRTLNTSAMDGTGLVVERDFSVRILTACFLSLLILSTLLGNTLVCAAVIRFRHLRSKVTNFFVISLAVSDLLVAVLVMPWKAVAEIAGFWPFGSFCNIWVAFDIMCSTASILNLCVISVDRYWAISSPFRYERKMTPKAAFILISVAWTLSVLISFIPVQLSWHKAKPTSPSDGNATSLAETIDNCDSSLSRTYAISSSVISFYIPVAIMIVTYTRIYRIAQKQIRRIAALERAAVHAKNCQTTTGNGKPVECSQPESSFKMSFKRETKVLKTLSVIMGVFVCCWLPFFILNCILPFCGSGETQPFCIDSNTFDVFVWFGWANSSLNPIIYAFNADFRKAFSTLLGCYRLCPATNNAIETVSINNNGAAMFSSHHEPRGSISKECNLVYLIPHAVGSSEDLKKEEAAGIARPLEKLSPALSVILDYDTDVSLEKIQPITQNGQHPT
Assay: Displacement of [3H]SCH23390 from dopamine D1 receptor expressed in HEK293 cells at 10 uM after 50 mins by beta liquid scintillation counter
Assay type: cell-based
Parameter threshold = 60%. Response is 1 when inhibition meets or exceeds it, else -1.

MOLECULE: CCCN1CCc2cccc3c2C1Cc1cccc(CNC(=S)CCCCC2CCSS2)c1-3 (racemic)
MEASURED_ON: D(1A) dopamine receptor (Homo sapiens)
CATEGORY: -1
//
MOLECULE: CCCN1CCc2cccc3c2C1Cc1cccc(OC(=O)CSc2ccccc2)c1-3 (racemic)
MEASURED_ON: D(1A) dopamine receptor (Homo sapiens)
CATEGORY: 1
//
MOLECULE: CCCN1CCc2cccc3c2C1Cc1cccc(CNC(=O)NCC)c1-3 (racemic)
MEASURED_ON: D(1A) dopamine receptor (Homo sapiens)
CATEGORY: -1
//
MOLECULE: CCCN1CCc2cccc3c2C1Cc1cccc(CNC(=O)CCCCC2CCSS2)c1-3 (racemic)
MEASURED_ON: D(1A) dopamine receptor (Homo sapiens)
CATEGORY: -1
//
MOLECULE: CCCN1CCc2cccc3c2[C@H]1Cc1cccc(OC(=O)CCCC[C@H]2CCSS2)c1-3
MEASURED_ON: D(1A) dopamine receptor (Homo sapiens)
CATEGORY: 1
//
MOLECULE: CCCNC(=O)Oc1cccc2c1-c1cccc3c1[C@@H](C2)N(CCC)CC3
MEASURED_ON: D(1A) dopamine receptor (Homo sapiens)
CATEGORY: -1
//
MOLECULE: CCCN1CCc2cccc3c2[C@H]1Cc1cccc(N)c1-3
MEASURED_ON: D(1A) dopamine receptor (Homo sapiens)
CATEGORY: -1
